Origin of measurements: patent US20200255504A1

Target: T1, human serum albumin (human, UniProt P02768 25-609)
T1 construct: also called HSA; human albumin
Assay: BLI Octet RED96, HSA on AR2G sensors, VHH 100-1.5 nM
reported.property: koff

INSERT INTO results (binder, reported_property, recorded_value) VALUES
  ('SA1_S30K VHH (VHH, Made in E. coli WK6 periplasm; also called SA1_S3OK; SA1_S30K mutant variant) VHH: QVQLQESGGGLVQAGGSLRLSCAASGRNIKEYVMGWFRQAPGKEREFVAAISWSAGNIYYADSVKGRFTISRDNAKNTVHLQMNTLRPEDTAVYYCAAGRYSAWYVAAYEYDYWGQGTQVTVSS', 'koff', '0.000203 s⁻¹'),
  ('SA1_S30K-biotinylated (VHH, labeled with NHS-PEG4-Biotin at a 5/1 molar ratio of biotin/VHH; the filing says the higher signal is likely related to the additional lysine at position 30; labelled residues not determined, also called biotinylated SA1_S30K VHH) VHH: QVQLQESGGGLVQAGGSLRLSCAASGRNIKEYVMGWFRQAPGKEREFVAAISWSAGNIYYADSVKGRFTISRDNAKNTVHLQMNTLRPEDTAVYYCAAGRYSAWYVAAYEYDYWGQGTQVTVSS', 'koff', '0.000187 s⁻¹'),
  ('SA1-biotinylated (VHH, labeled with NHS-PEG4-Biotin at a 5/1 molar ratio of biotin/VHH; labelled residues not determined, also called biotinylated SA1) VHH: QVQLQESGGGLVQAGGSLRLSCAASGRNISEYVMGWFRQAPGKEREFVAAISWSAGNIYYADSVKGRFTISRDNAKNTVHLQMNTLRPEDTAVYYCAAGRYSAWYVAAYEYDYWGQGTQVTVSS', 'koff', '0.000166 s⁻¹'),
  ('SA1 VHH (VHH, From WO2014/037419; made in E. coli WK6 periplasm; also called non-mutated SA1; original SA1 VHH) VHH: QVQLQESGGGLVQAGGSLRLSCAASGRNISEYVMGWFRQAPGKEREFVAAISWSAGNIYYADSVKGRFTISRDNAKNTVHLQMNTLRPEDTAVYYCAAGRYSAWYVAAYEYDYWGQGTQVTVSS', 'koff', '0.00022 s⁻¹');
